Test system: Monographella nivalis (Microdochium nivale)
protocol-details: Monographella nivalis (Microdochium nivale) / liquid culture (foot rot cereals)
Assay type: cell-based
condition-notes: PDB, 24° C., 4-5 days after application, read-out: control of Monographella nivalis (inhibition of growth, photometric)
inhibition at 200 ppm values by entry
readout-type: inhibition at 200 ppm

- molecule: "COc1cc(C)nc(-c2cccc(CCCO/N=C(\\C)c3cc(C)cc(C)n3)n2)c1 [P.13]"
  readout-type: "inhibition at 200 ppm"
  experimental-value: "≥ 80%"
- molecule: "COc1cc(C)nc(-c2cccc(CCCO/N=C(\\C)c3cccc(C)n3)n2)c1 [P.11]"
  readout-type: "inhibition at 200 ppm"
  experimental-value: "≥ 80%"
- molecule: "C/C(=N\\OCCCc1cccc(-c2ccnc(C3CC3)n2)n1)c1cccc(C)n1 [P.07]"
  readout-type: "inhibition at 200 ppm"
  experimental-value: "≥ 80%"
- molecule: "CCCOc1cc(C)nc(-c2cccc(CCCO/N=C(\\C)c3cc(C)cc(C)n3)n2)c1 [P.31]"
  readout-type: "inhibition at 200 ppm"
  experimental-value: "≥ 80%"
- molecule: "COc1cc(C)nc(-c2cccc(CCCO/N=C(\\C)c3nc(C)cc(C)n3)n2)c1 [P.44]"
  readout-type: "inhibition at 200 ppm"
  experimental-value: "≥ 80%"

====

The following molecules are listed with their measured pest or weed control at 200 ppm values.
Test system: Puccinia recondita f. sp. tritici
condition-notes: in Triticum aestivum, foliar, read-out: control of Puccinia recondita f. sp. tritici (percent disease control compared to untreated)
readout-type: pest or weed control at 200 ppm

- molecular-string: "CCc1ccc(C)c(-c2cccc(CCCO/N=C(\\C)c3cccc(C)n3)n2)n1"
  readout-type: "pest or weed control at 200 ppm"
  experimental-value: "≥ 80%"
- molecular-string: "C#CCOc1cc(C)nc(-c2cccc(CCCO/N=C(\\C)c3cccc(C)n3)n2)c1"
  readout-type: "pest or weed control at 200 ppm"
  experimental-value: "≥ 80%"
- molecular-string: "C/C(=N\\OCCCc1cccc(-c2nc(C)cc(C)n2)n1)c1cccc(C)n1"
  readout-type: "pest or weed control at 200 ppm"
  experimental-value: "≥ 80%"
- molecular-string: "C#CCOc1cc(CC)nc(-c2cccc(CCCO/N=C(\\C)c3cccc(C)n3)n2)c1C"
  readout-type: "pest or weed control at 200 ppm"
  experimental-value: "≥ 80%"
- molecular-string: "C/C(=N\\OCCCc1cccc(-c2cc(OCc3ccccc3)cc(C)n2)n1)c1cccc(C)n1"
  readout-type: "pest or weed control at 200 ppm"
  experimental-value: "≥ 80%"

====

Parameter: melting point. Scope: all listed entries.
readout-type: melting point

- compound: "C/C(=N\\OCCCc1cccc(-c2cc(Cl)cc(C)n2)n1)c1cccc(C)n1 [P.16]"
  experimental-value: "53 to 54 °C"
- compound: "CSc1cc(C)nc(-c2cccc(CCCO/N=C(\\C)c3cccc(C)n3)n2)c1 [P.17]"
  experimental-value: "76 to 77 °C"
- compound: "COc1cc(C)nc(-c2cccc(CCCO/N=C(\\C)c3cccc(C)n3)n2)c1 [P.11]"
  experimental-value: "84 to 86 °C"
- compound: "CCc1cc(O)c(C)c(-c2cccc(CCCO/N=C(\\C)c3cccc(C)n3)n2)n1 [P.32]"
  experimental-value: "128 to 130 °C"

Taken from patent US20140045873A1.
